tested on: HDF cells; assay: Summary of uses and toxic effects deduced from the cell assays (Table 1); assay type: cell-based, Human; details: Dose 10 µm; 24 hours
Measurement Kind: Cytotoxic

c1cc2c(c3c1C[C@H]1c4cc5c(cc4CCN1C3)OCO5)OCO2 No
COc1ccc2cc3[n+](cc2c1OC)CCc1cc2c(cc1-3)OCO2 No
c1c2c(cc3c1OCO3)-c1cc3ccc4c(c3c[n+]1CC2)OCO4 No
COc1ccc2c(c1OC)CN1CCc3cc4c(cc3[C@@H]1C2)OCO4 No

---

Kindly state No. of cells from photo ± SD for each of the entries shown.
tested on: HDF cells; experiment: Evaluation of cell proliferation (counting of Sirius Red stained cells in photographs); settings: 1 µM; 100 µM H2O2; 24 hours
Reply with just the number.

Task: Given c1cc2c(c3c1C[C@H]1c4cc5c(cc4CCN1C3)OCO5)OCO2 [stylopine] , state its recorded No. of cells from photo ± SD.
Output: 240

Task: Quick one: No. of cells from photo ± SD of CN1Cc2c(ccc3c2OCO3)[C@@H]2[C@H]1c1cc3c(cc1C[C@@H]2O)OCO3 [chelidonine] ?
Output: 189

Task: Given COc1ccc2c(c1OC)CN1CCc3cc4c(cc3C1=C2)OCO4 [dihydroberberine] , state its recorded No. of cells from photo ± SD.
Output: 146

Task: Query (compound): c1c2c(cc3c1OCO3)-c1cc3ccc4c(c3c[n+]1CC2)OCO4 [coptisine] ; field requested: No. of cells from photo ± SD
Output: 143

Task: Need No. of cells from photo ± SD, item COc1ccc2cc3[n+](cc2c1OC)CCc1cc2c(cc1-3)OCO2 [berberine]
Output: 129

Task: If you can, please state the reported No. of cells from photo ± SD value of COc1ccc2c(c[n+](C)c3c4cc5c(cc4ccc23)OCO5)c1OC [chelerythrine] .
Output: 289

Task: For C[n+]1cc2c3c(ccc2c2ccc4cc5c(cc4c21)OCO5)OCO3 [sanguinarine] , what is its reported No. of cells from photo ± SD?
Output: 110

Task: Request the reported No. of cells from photo ± SD associated with COc1ccc2c(c1OC)CN1CCc3cc4c(cc3[C@@H]1C2)OCO4 [canadine]
Output: 253

---

system: interleukin 1β (IL-1β); experiment: Inflammatory cytokines in cell supernatant (Mosaic ELISA microarray): IL-1β; type: cell-based, Human; conditions: 1 µM; 34 ng/ml TGF-β1; 24 hours
Measurement Kind: IL-1β ng/(ml* No. of cells from photo) ± SD

Task: Form entry - test system: interleukin 1β (IL-1β); read-out: IL-1β ng/(ml* No. of cells from photo) ± SD; molecule: COc1ccc2c(c1OC)CN1CCc3cc4c(cc3[C@@H]1C2)OCO4 [canadine]
Output: 116±19 ng/(ml* No. of cells from photo)

Task: Checklist item: IL-1β ng/(ml* No. of cells from photo) ± SD tested on interleukin 1β (IL-1β), entry c1c2c(cc3c1OCO3)-c1cc3ccc4c(c3c[n+]1CC2)OCO4 [coptisine] , value?
Output: 207±8 ng/(ml* No. of cells from photo)

Task: Checklist item: IL-1β ng/(ml* No. of cells from photo) ± SD tested on interleukin 1β (IL-1β), entry CN1Cc2c(ccc3c2OCO3)[C@@H]2[C@H]1c1cc3c(cc1C[C@@H]2O)OCO3 [chelidonine] , value?
Output: 127±26 ng/(ml* No. of cells from photo)

Task: Query the reported IL-1β ng/(ml* No. of cells from photo) ± SD for interleukin 1β (IL-1β); item: C[n+]1cc2c3c(ccc2c2ccc4cc5c(cc4c21)OCO5)OCO3 [sanguinarine]
Output: 297±13 ng/(ml* No. of cells from photo)

Task: Lab note: need IL-1β ng/(ml* No. of cells from photo) ± SD with interleukin 1β (IL-1β) for entry COc1ccc2cc3[n+](cc2c1OC)CCc1cc2c(cc1-3)OCO2 [berberine] , please look it up.
Output: 138±5 ng/(ml* No. of cells from photo)

Task: Find IL-1β ng/(ml* No. of cells from photo) ± SD (interleukin 1β (IL-1β)) for the entry COc1ccc2c(c1OC)CN1CCc3cc4c(cc3C1=C2)OCO4 [dihydroberberine]
Output: 99±10 ng/(ml* No. of cells from photo)

Task: Given the entry COc1ccc2c(c[n+](C)c3c4cc5c(cc4ccc23)OCO5)c1OC [chelerythrine] , what IL-1β ng/(ml* No. of cells from photo) ± SD was observed with interleukin 1β (IL-1β)?
Output: 98±10 ng/(ml* No. of cells from photo)

Task: Identify the measured IL-1β ng/(ml* No. of cells from photo) ± SD of c1cc2c(c3c1C[C@H]1c4cc5c(cc4CCN1C3)OCO5)OCO2 [stylopine] for interleukin 1β (IL-1β).
Output: 97±3 ng/(ml* No. of cells from photo)

---

Kindly supply the reported IL-6 ng/(ml* No. of cells from photo) ± SD values for the records listed here.
tested on: interleukin 6 (IL-6); experiment: Inflammatory cytokines in cell supernatant (Mosaic ELISA microarray): IL-6; format: cell-based, Human; settings: 10 µM; Standard conditions; 24 hours

Task: Look at this molecule and give its reported IL-6 ng/(ml* No. of cells from photo) ± SD. COc1ccc2cc3[n+](cc2c1OC)CCc1cc2c(cc1-3)OCO2 [berberine]
Output: 618±25 ng/(ml* No. of cells from photo)

Task: Given the molecule c1c2c(cc3c1OCO3)-c1cc3ccc4c(c3c[n+]1CC2)OCO4 [coptisine] , what is its reported IL-6 ng/(ml* No. of cells from photo) ± SD?
Output: 751±93 ng/(ml* No. of cells from photo)

Task: Tell me the measured IL-6 ng/(ml* No. of cells from photo) ± SD of COc1ccc2c(c1OC)CN1CCc3cc4c(cc3[C@@H]1C2)OCO4 [canadine] , please.
Output: 508±43 ng/(ml* No. of cells from photo)

Task: Fill in: IL-6 ng/(ml* No. of cells from photo) ± SD of c1cc2c(c3c1C[C@H]1c4cc5c(cc4CCN1C3)OCO5)OCO2 [stylopine] is ___
Output: 961±38 ng/(ml* No. of cells from photo)

Task: Sample COc1ccc2c(c[n+](C)c3c4cc5c(cc4ccc23)OCO5)c1OC [chelerythrine] — what was its IL-6 ng/(ml* No. of cells from photo) ± SD?
Output: 572±14 ng/(ml* No. of cells from photo)

---

tested on: HDF cells; test: Summary of uses and toxic effects deduced from the cell assays (Table 1); format: cell-based, Human; details: Dose 1 µm (coptisine: 1 pm [sic]); 24 hours
Measurement Kind: Irritant

Compound	Assayed Target	Irritant
CN1Cc2c(ccc3c2OCO3)[C@@H]2[C@H]1c1cc3c(cc1C[C@@H]2O)OCO3 [chelidonine]	HDF cells	No
COc1ccc2c(c[n+](C)c3c4cc5c(cc4ccc23)OCO5)c1OC [chelerythrine]	HDF cells	No
C[n+]1cc2c3c(ccc2c2ccc4cc5c(cc4c21)OCO5)OCO3 [sanguinarine]	HDF cells	Yes (↑IL-6, ↑IL-1β)
COc1ccc2c(c1OC)CN1CCc3cc4c(cc3[C@@H]1C2)OCO4 [canadine]	HDF cells	No

Next compound, please.
Task: Would you kindly share the measured Irritant for c1c2c(cc3c1OCO3)-c1cc3ccc4c(c3c[n+]1CC2)OCO4 [coptisine] ?
Output: Yes (↑IL-6, ↑IL-1β)

---

Provide the reported IL-6 ng/(ml* No. of cells from photo) ± SD of each item.
test system: interleukin 6 (IL-6); assay: Inflammatory cytokines in cell supernatant (Mosaic ELISA microarray): IL-6; type: cell-based, Human; conditions: 1 µM; Standard conditions; 24 hours

Task: Can you share its IL-6 ng/(ml* No. of cells from photo) ± SD? I mean this compound: C[n+]1cc2c3c(ccc2c2ccc4cc5c(cc4c21)OCO5)OCO3 [sanguinarine]
Output: 470±32 ng/(ml* No. of cells from photo)

Task: Please report the recorded IL-6 ng/(ml* No. of cells from photo) ± SD for COc1ccc2c(c[n+](C)c3c4cc5c(cc4ccc23)OCO5)c1OC [chelerythrine] .
Output: 396±14 ng/(ml* No. of cells from photo)

Task: What value of measured IL-6 ng/(ml* No. of cells from photo) ± SD is listed for c1cc2c(c3c1C[C@H]1c4cc5c(cc4CCN1C3)OCO5)OCO2 [stylopine] ?
Output: 868±62 ng/(ml* No. of cells from photo)

Task: // lookup IL-6 ng/(ml* No. of cells from photo) ± SD for COc1ccc2c(c1OC)CN1CCc3cc4c(cc3[C@@H]1C2)OCO4 [canadine]
Output: 405±8 ng/(ml* No. of cells from photo)

Task: I have this compound here, c1c2c(cc3c1OCO3)-c1cc3ccc4c(c3c[n+]1CC2)OCO4 [coptisine] , and I need its recorded IL-6 ng/(ml* No. of cells from photo) ± SD.
Output: 612±31 ng/(ml* No. of cells from photo)

Task: For COc1ccc2cc3[n+](cc2c1OC)CCc1cc2c(cc1-3)OCO2 [berberine] , what is its reported IL-6 ng/(ml* No. of cells from photo) ± SD?
Output: 843±35 ng/(ml* No. of cells from photo)

Task: So what does the record say about IL-6 ng/(ml* No. of cells from photo) ± SD for COc1ccc2c(c1OC)CN1CCc3cc4c(cc3C1=C2)OCO4 [dihydroberberine] ?
Output: 541±24 ng/(ml* No. of cells from photo)
